Data credit: patent US8716475B2

measuredOn: human H4 receptor (Homo sapiens, UniProt Q9H3N8)
Construct: expressed in transfected cells
Sequence (Q9H3N8 whole entry): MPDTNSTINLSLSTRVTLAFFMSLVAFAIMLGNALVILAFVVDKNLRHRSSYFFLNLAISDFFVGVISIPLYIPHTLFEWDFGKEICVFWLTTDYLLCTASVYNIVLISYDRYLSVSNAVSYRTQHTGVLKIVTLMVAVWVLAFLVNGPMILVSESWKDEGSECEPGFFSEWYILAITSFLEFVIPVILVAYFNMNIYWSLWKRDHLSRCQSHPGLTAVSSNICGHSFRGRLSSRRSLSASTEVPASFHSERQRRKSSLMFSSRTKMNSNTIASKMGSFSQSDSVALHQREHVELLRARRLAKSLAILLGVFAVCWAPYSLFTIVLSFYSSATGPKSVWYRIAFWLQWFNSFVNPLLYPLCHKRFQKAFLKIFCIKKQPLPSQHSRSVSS
experimentalProtocol: Binding Assay on Recombinant Human Histamine H4 Receptor
testContext: Table 2; [3H] histamine competition binding, membranes of SK-N-MC cells transfected with human H4 receptor; average of results
metricName: Ki (nM)
Numeric answer only, unit nM assumed.

compound	measuredOn	unitSymbol	Ki
CC(C)Cc1cc(N2CCNCC2)nc(N)n1	human H4 receptor (Homo sapiens, UniProt Q9H3N8)	nM	4

Ki measured on `COc1c(C2CCCC2)nc(N)nc1N1CC[C@@H](N)C1` = 136

So, `CN[C@@H]1CCN(c2cc(CCC(F)(F)F)nc(N)n2)C1` ? Its Ki was 16

Documented Ki of `Nc1nc(Cc2ccsc2)cc(N2CCNCC2)n1` : 2

Kindly note the recorded Ki for `CC1(c2cc(N3CC[C@@H](N)C3)nc(N)n2)CCOCC1` , which is 138

The compound identified as CN[C@@H]1CCN(c2cc(C3CC3c3ccccc3)nc(N)n2)C1 (single isomer, unassigned) [Example 256] registered its Ki at 5

###

measuredOn: human H4 receptor (Homo sapiens, UniProt Q9H3N8)
Construct: expressed in transfected cells
experimentalProtocol: Binding Assay on Recombinant Human Histamine H4 Receptor
testContext: Table 2; [3H] histamine competition binding, membranes of SK-N-MC cells transfected with human H4 receptor; average of results
The recorded Ki of each item maps onto one of these classes: low bracket = under 10 nM, middle bracket = from 10 nM up to 80 nM, high bracket = 80 nM and over

Just checking, what class would you give `CCOCc1cc(N2CC[C@@H](NC)C2)nc(N)n1` here? middle bracket

Lab log: `CCCCc1cc(N2CC3CCC(C2)N3)nc(N)n1` — assign Ki category middle bracket

Place this compound in its band: CN[C@@H]1CCN(c2cc(C3CC3c3ccccc3)nc(N)n2)C1 (single isomer, unassigned) [Example 255] middle bracket

###

Reported pKi values for the following compounds.
measuredOn: human H4 receptor (Homo sapiens)
Construct: expressed in transfected cells
experimentalProtocol: Binding Assay on Recombinant Human Histamine H4 Receptor
testContext: Table 2, data marked with an asterisk (*): obtained by the cell harvester method; [3H] histamine competition binding, SK-N-MC membranes
Scale explanation: pKi corresponds to minus log10 of a concentration expressed in moles per litre.

Worked cases, pKi given:
smilesEntry	pKi
CCCCc1nc(N)nc(N(C)CCN)c1OC	6.29
CN(CCN)c1cc(C(C)(C)C)nc(N)n1	6.39
CN(CCN)c1cc(Cc2ccccc2)nc(N)n1	6.25

So the reported pKi for `CC(C)(C)c1cc(N2C[C@H]3CNC[C@H]3C2)nc(N)n1` , on human H4 receptor (Homo sapiens), turned out to be 6.45

GET /values?item= `CC(C)(C)c1cc(N2CC(N)C2)nc(N)n1` &system= human H4 receptor (Homo sapiens) returns pKi: 6.62

###

measuredOn: human H4 receptor (Homo sapiens, UniProt Q9H3N8)
Construct: expressed in transfected cells
experimentalProtocol: Binding Assay on Recombinant Human Histamine H4 Receptor
testContext: Table 2; [3H] histamine competition binding, membranes of SK-N-MC cells transfected with human H4 receptor; average of results
metricName: Ki

compound	Ki
CN1CCN(c2cc(Cc3ccncc3)nc(N)n2)CC1	81 nM
CCCCc1nc(N)nc(N2CC[C@H](NC)C2)c1OC	104 nM
CN[C@@H]1CCN(c2cc(C3CCOC3)nc(N)n2)C1 (some centres unmarked)	12 nM
CN(CCN)c1cc(C2CCOC2)nc(N)n1 (centres unmarked)	6 nM
COCc1cc(N2C[C@H]3CCCN[C@H]3C2)nc(N)n1	14 nM

The reported Ki of the compound `CC1(c2cc(N3C[C@H]4CNC[C@H]4C3)nc(N)n2)CCOCC1` was 5890 nM

Kindly note the recorded Ki for Nc1nc(C2CC2c2ccccc2)cc(N2CCNCC2)n1 (centres unmarked) , which is 12 nM

Per the record, `Nc1nc(CCC(F)(F)F)cc(N2CCNCC2)n1` has Ki of 20 nM

`Nc1nc(Cc2ccccc2)cc(N2CC(N)C2)n1` yielded Ki of 52 nM

compound `COCc1cc(NCCN)nc(N)n1` , Ki observed: 890 nM

For reference, reported Ki for Nc1nc(Cc2ccsc2)cc(N2CC3CCCNC3C2)n1 (centres unmarked) stands at 4 nM

Measured Ki of Nc1nc(C2CCOC2)cc(N2CCNCC2)n1 (single isomer, unassigned; (+)) [Example 194] : 49 nM

Lookup result for `CN[C@@H]1CCN(c2cc(Cc3ccsc3)nc(N)n2)C1` ; measured Ki: 8 nM

// `CN1CCN(c2cc(Cc3ccsc3)nc(N)n2)CC1` : Ki value = 2 nM

Entry `Nc1nc(C2CC2)cc(N2CC[C@@H](N)C2)n1` ; Ki = 4 nM

Reported Ki for `Nc1nc(C2Cc3ccccc3C2)cc(N2C[C@H]3CNC[C@H]3C2)n1` was 2070 nM

// Ki lookup, compound = `CN1C[C@@H]2CN(c3cc(C(C)(C)C)nc(N)n3)C[C@@H]2C1` , result: 19 nM

Memo: `CCCCc1nc(N)nc(N2CCNCC2)c1OC` , reported Ki: 30 nM

# compound `CN1C[C@@H]2CN(c3cc(C4CCCC4)nc(N)n3)C[C@@H]2C1` ; its Ki = 25 nM

GET /value?item= NCCNc1cc(C2CC2c2ccccc2)nc(N)n1 (centres unmarked) &field=Ki returns 42 nM

The measured Ki associated with Nc1nc(C2CCCC2)cc(N2CC3NCCOC3C2)n1 (single isomer, unassigned) [Example 88] reads 520 nM

The measured Ki associated with `CN[C@@H]1CCN(c2nc(N)nc(C)c2F)C1` reads 515 nM

Ki reported for this compound `Nc1nc(C2CCCC2)cc(N2C[C@H]3CCCN[C@H]3C2)n1` : 2 nM

Summary for this compound, `CC(C)(C)c1cc(N2CC3CCC(C2)N3)nc(N)n1` : Ki is 130 nM

Ki for `Nc1nc(C2CCCC2)cc(N2C[C@H]3CCN[C@H]3C2)n1` is 3 nM

// sample `Nc1nc2c(c(N3CC(N)C3)n1)COCC2` , its Ki was > 10000 nM

###

Entries and their log10 Ki
measuredOn: human H4 receptor (Homo sapiens)
Construct: expressed in transfected cells
experimentalProtocol: Binding Assay on Recombinant Human Histamine H4 Receptor
testContext: Table 2; [3H] histamine competition binding, membranes of SK-N-MC cells transfected with human H4 receptor; average of results
Hello, just confirming the data are log10 of Ki with units of nM.

Guide cases for log10 Ki, answers given:
compound	metricName	endpointValue
CN1C[C@@H]2CN(c3cc(CC4CCCO4)nc(N)n3)C[C@@H]2C1 (stereo partly drawn)	log10 Ki	2.56
CCCCc1cc(N2CCNCC2)nc(N)n1	log10 Ki	0.48
CCCCc1cc(N2CCN(C)CC2)nc(N)n1	log10 Ki	0.00
CN[C@@H]1CCN(c2cc(Cc3ccncc3)nc(N)n2)C1	log10 Ki	2.36
COc1c(C2CCCC2)nc(N)nc1N1CCCNCC1	log10 Ki	1.66
NCCNc1cc(C2CCOCC2)nc(N)n1	log10 Ki	2.53
CN[C@@H]1CCN(c2cc(C3CC3c3ccccc3)nc(N)n2)C1 (stereo in doubt) [Example 160]	log10 Ki	0.48

Let us move to another entry and its log10 Ki.
Lab book: log10 Ki of `Nc1nc2c(c(N3CC[C@@H](N)C3)n1)COCC2` noted as 2.47
